Tested on: rodent lifetime carcinogenesis bioassay, tumor incidence TD50
ASSAY PROTOCOL: carcinogenic potency in animals, long-term in vivo studies, CPDB compilation (AID 1745844)
CONDITION DESCRIPTION: rat; strain Sprague-Dawley; females; i.p.; site: uterus; lesion: adenocarcinoma, NOS; dosed 36 weeks; study length 81 weeks
MEASURE: TD50 (mg/kg/day)

1. S=P(N1CC1)(N1CC1)N1CC1 0.243

---

Test system: rodent lifetime carcinogenesis bioassay, tumor incidence TD50
ASSAY PROTOCOL: carcinogenic potency in animals, long-term in vivo studies, CPDB compilation (AID 1745844)
CONDITION DESCRIPTION: rat; strain Fischer 344; males; in drinking water; site: liver; lesion: hepatocellular adenoma + hepatoblastoma + hepatocellular carcinoma; dosed 103 weeks; study length 103 weeks
MEASURE: TD50 (mg/kg/day)

1. c1ccncc1 160
